src = patent US20120252792A1

Kindly state inhibition at 100 µM for each of the entries shown.
- Test system: PC-3 prostate cancer cells
- experiment: WST1 cell viability assay
- Assay type: cell-based, human
- testConditions: Homo sapiens, PC-3, 100 μM, PC-3 cells, just before lysis; read-out: % inh WST-1 (100 μM)
Reply with just the number (in %).

# query: inhibition at 100 µM of entry O=C(Nc1ccc(Cl)cc1)C1CCN(C(=O)c2cc(C(F)(F)F)cc(C(F)(F)F)c2)C1 (stereo not drawn) [Compound 27] 86

# query: inhibition at 100 µM of entry O=C(NCCCOc1ccc(Cl)cc1)c1cc(C(F)(F)F)cc(C(F)(F)F)c1 [Compound 19] 38

# query: inhibition at 100 µM of entry O=C(NC1CC(=O)N(c2ccc(Cl)cc2)C1)c1cc(C(F)(F)F)cc(C(F)(F)F)c1 (stereo not drawn) [Compound 47] 14.3

# query: inhibition at 100 µM of entry O=C(NC1CC(=O)N(c2ccc(Cl)cc2)C1)OCc1cc(C(F)(F)F)cc(C(F)(F)F)c1 (stereo not drawn) [Compound 45] 8.4

# query: inhibition at 100 µM of entry FC(F)(F)c1cc(CNCCCNc2ccc(Cl)cc2)cc(C(F)(F)F)c1 [Compound 28] 89

# query: inhibition at 100 µM of entry O=C(Nc1ccc(Cl)cc1)C1CCCN1C(=O)c1cc(C(F)(F)F)cc(C(F)(F)F)c1 (stereo not drawn) [Compound 7] 22

# query: inhibition at 100 µM of entry O=C(NCCCNc1ccc(Cl)cc1)c1cc(C(F)(F)F)cc(C(F)(F)F)c1 [Compound 15] 11

# query: inhibition at 100 µM of entry CC(C)(C)OC(=O)NC1CCN(c2ccc(Cl)cc2)C1 (stereo not drawn) [Compound 57] 21.1

# query: inhibition at 100 µM of entry O=C(NC1CC(=O)N(c2ccc(Cl)cc2)C1)c1cc(F)cc(F)c1 (stereo not drawn) [Compound 49] 0.6

# query: inhibition at 100 µM of entry O=C(CNC(=O)c1cc(C(F)(F)F)cc(C(F)(F)F)c1)Nc1ccc(Cl)cc1 [Compound 3] 30

# query: inhibition at 100 µM of entry O=C(NCC1CCN(c2ccc(Cl)cc2)C1=O)c1cc(C(F)(F)F)cc(C(F)(F)F)c1 (stereo not drawn) [Compound 53] 26.9

# query: inhibition at 100 µM of entry O=C(CCNC(=O)c1cc(C(F)(F)F)cc(C(F)(F)F)c1)Nc1ccc(Cl)cc1 [Compound 30] 6

# query: inhibition at 100 µM of entry FC(F)(F)c1cc(CN2CCCC(CNc3ccc(Cl)cc3)C2)cc(C(F)(F)F)c1 (stereo not drawn) [Compound 50] 32.2

# query: inhibition at 100 µM of entry O=C(CC1CCCCN1C(=O)c1cc(C(F)(F)F)cc(C(F)(F)F)c1)Nc1ccc(Cl)cc1 (stereo not drawn) [Compound 26] 27

# query: inhibition at 100 µM of entry O=C(c1cc(C(F)(F)F)cc(C(F)(F)F)c1)N1CCCC(CNc2ccc(Cl)cc2)C1 (stereo not drawn) [Compound 56] 22.4
